Measured Tmax, listed per entry.
Assay: Tmax in Swiss mouse at 100 mg/kg, po administered as single dose via gavage by LC-MS analysis
Assay type: ADME, organism-based
Conditions: in vivo
Give your result in h as a bare value.

In the examples that follow, each entry is paired with its recorded Tmax.
N#Cc1ccc(NC(=O)Nc2ccnc(C(F)(F)F)c2)cc1    2
O=C(Nc1ccnc(C(F)(F)F)c1)Nc1ccc(F)c(C(F)(F)F)c1    7.5
O=C(Nc1ccc(F)c(C(F)(F)F)c1)Nc1ccc(F)c(C(F)(F)F)c1    4
N#Cc1ccc(NC(=O)Nc2ccc(F)c(C(F)(F)F)c2)cc1    4

Return the recorded Tmax value; entry: O=C(Nc1ccnc(C(F)(F)F)c1)Nc1ccnc(C(F)(F)F)c1
4
